Data credit: paper PMC3138877

# assay_name: Pharmacokinetic study, plasma levels in mice
# Format: in vivo
# assay_setup: athymic nude (nu/nu), mouse, plasma, po, 50 mg/kg
measured_metric: concentration at 2 h (µM)
Numbers only, in µM.

Q) // returns reported concentration at 2 h for input C[C@@H](Oc1cc(-c2cnn(C3CCNCC3)c2)cnc1N)c1c(Cl)ccc(F)c1Cl [PF-1066, crizotinib, reference compound]
A) 10.2

* * *

# Tested on: Ba/F3 cells expressing EML4-ALK E13;A20 L1196M
# assay_name: Cell Titer Blue viability, Ba/F3 EML4-ALK L1196M
# Assay type: cell-based
# assay_setup: read-out: IC50 Ba/F3 + EML4-ALK E13;A20 L1196M; 72h, Cell titer blue
measured_metric: IC50
Give the value; after it, write the unit.

Q) # lookup: IC50 of C[C@@H]1CN(C(=O)c2ccc(NC(=O)c3cc(O[C@H](C)c4c(Cl)ccc(F)c4Cl)c(N)nn3)cc2)C[C@H](C)N1 [X-396]
A) 106 nM
